growth reference
System: 786-0 renal
Assay: NCI-60 one-dose screen, 48 h (100 = growth as untreated, 0 = no growth, -100 = all killed)
Conditions: 10 µM unless noted
About 83,000 compounds went through this panel and 20% of them were active in at least one assay; those are over-represented in the sample as a whole.
Entry rule: numbers only, all in %.

Record excerpt, results attached:
compound	units.of.measure	growth
Nc1nc(Nc2ccccc2SSc2ccccc2Nc2nc(N)nc(-c3cccc(Br)c3)n2)nc(-c2cccc(Br)c2)n1	%	79.3
COc1cc(-c2nn(C(C)(C)C)cc2-c2ccnc(NCCCNS(=O)(=O)c3ccc(C)cc3)n2)ccc1Cl	%	83.2
COc1c(N2CC3CCCNC3C2)c(F)cc2c(=O)c(C(=O)N/N=C/c3ccc(N(C)C)cc3)cn(C3CC3)c12 (centres undefined)	%	37.7

Continue with the compound presented below.
Which value of growth has been reported for O=C1CCCc2nc(Nc3ccc(S(=O)(=O)Nc4ccc([N+](=O)[O-])cc4)cc3)ncc21 in the records? 99.9
